Data provenance: patent US11247990B1

TEST_TARGET: GST-tagged recombinant human TYRO3 kinase domain (Homo sapiens (Human), UniProt Q06418)
Sequence (Q06418 518-790): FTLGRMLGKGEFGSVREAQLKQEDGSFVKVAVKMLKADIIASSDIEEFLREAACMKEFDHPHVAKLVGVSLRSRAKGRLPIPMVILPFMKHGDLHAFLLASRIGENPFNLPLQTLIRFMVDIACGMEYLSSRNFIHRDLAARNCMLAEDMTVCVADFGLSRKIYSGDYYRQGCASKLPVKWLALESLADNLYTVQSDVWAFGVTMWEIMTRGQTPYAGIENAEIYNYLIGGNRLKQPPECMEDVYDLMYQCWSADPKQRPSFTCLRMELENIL
EXPERIMENT_NOTES: TYRO3 Enzyme Assay (LanthaScreen Eu Kinase Binding, TR-FRET)
MEASUREMENT_CONDITIONS: averaged IC50
Experimental: Compounds of Formula I were screened for their ability to inhibit TYRO3 kinase using Invitrogen's LanthaScreen™ Eu Kinase Binding technology. […] After a 60-minute incubation at 22° C., the reaction was measured using a PerkinElmer EnVision multimode plate reader via TR-FRET dual wavelength detection, and the percent of control (POC) calculated using a ratiometric emission factor. […] The POC values were fit to a 4 parameter logistic curve and the IC50 value is point where the curve crosses 50 POC.
pIC50: −log10 of the molar value.
MEASURED_ATTRIBUTE: pIC50

Problem: Please state recorded pIC50 (tested on GST-tagged recombinant human TYRO3 kinase domain (Homo sapiens (Human), UniProt Q06418)) of CNc1cc2c(cn1)c(-c1cnn(CC3CCOCC3)c1)nn2[C@H]1CC[C@@H](Oc2nccnc2C)CC1 [Example 215]
Solution: 7.00 to 8.00

Problem: And for CCNc1cc2c(cn1)c(-c1ncco1)nn2[C@H]1CC[C@@H](Oc2ccc(=O)n(C)n2)CC1 [Example 81] ?
Solution: 5.00 to 6.00

Problem: And for CNc1cc2c(cn1)c(-c1cnn(C)c1)nn2[C@H]1CC[C@@H](Oc2cccc(C(F)(F)F)n2)CC1 [Example 174] ?
Solution: 5.00 to 6.00
